# target under test: Tyrosyl-tRNA synthetase, putative (Trypanosoma cruzi (strain CL Brener)) (UniProt Q4DSP6)
# Sequence (Q4DSP6 as listed by the source): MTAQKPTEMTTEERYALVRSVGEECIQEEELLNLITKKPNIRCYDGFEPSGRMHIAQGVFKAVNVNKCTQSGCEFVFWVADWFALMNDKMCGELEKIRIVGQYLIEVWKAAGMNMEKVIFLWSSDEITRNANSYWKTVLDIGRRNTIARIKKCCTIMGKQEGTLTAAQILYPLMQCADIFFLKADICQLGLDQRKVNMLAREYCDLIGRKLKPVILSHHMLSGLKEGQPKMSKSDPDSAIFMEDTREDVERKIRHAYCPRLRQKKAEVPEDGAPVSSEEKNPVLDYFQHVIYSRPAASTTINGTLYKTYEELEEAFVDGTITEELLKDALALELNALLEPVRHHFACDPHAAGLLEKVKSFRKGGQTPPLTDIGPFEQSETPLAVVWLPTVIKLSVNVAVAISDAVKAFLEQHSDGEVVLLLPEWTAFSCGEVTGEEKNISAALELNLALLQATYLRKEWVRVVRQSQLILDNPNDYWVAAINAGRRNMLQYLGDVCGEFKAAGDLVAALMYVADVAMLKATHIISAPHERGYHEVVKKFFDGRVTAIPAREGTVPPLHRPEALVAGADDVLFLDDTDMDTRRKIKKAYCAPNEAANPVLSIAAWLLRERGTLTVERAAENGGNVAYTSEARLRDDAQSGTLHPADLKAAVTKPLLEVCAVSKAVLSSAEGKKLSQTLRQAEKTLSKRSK
# assay details: Trypanosoma cruzi tyrosyl tRNA synthetase (TcYRS) SOP
# Type: functional
# Set-up: scale not given: direction of the effect not stated beside the values
# condition set: 30 µM
Below, each entry is listed with its recorded Percent Effect.

- molecule: "CN(C)C(=O)NC1COC2(CCN(C(=O)Nc3ccccc3)CC2)C1 (stereo not drawn)"
  unit text: "%"
  Percent Effect: 6.41
- molecule: "Cc1ncccc1O[C@H]1CCN(C(=O)c2cccs2)CC[C@@H]1O"
  unit text: "%"
  Percent Effect: -1.3
- molecule: "Cn1nccc1C1CCN(CC(O)c2cccc(F)c2)CC1 (stereo not drawn)"
  unit text: "%"
  Percent Effect: -8.86
- molecule: "CC1CCN(CCNC(=O)c2cncnc2C(C)C)CC1"
  unit text: "%"
  Percent Effect: 5.13
- molecule: "O=C(NCC1CCOC1)N1CCN(Cc2ccc3c(c2)CCO3)CC1 (stereo not drawn)"
  unit text: "%"
  Percent Effect: 23.5
- molecule: "CCOCC1CN(C)Cc2cnn(CC3CCCC3)c21 (stereo not drawn)"
  unit text: "%"
  Percent Effect: 11.1
- molecule: "Cn1ccc(C(=O)NCc2ccc(N3CCCC3)nc2)cc1=O"
  unit text: "%"
  Percent Effect: 5.13
- molecule: "N#Cc1ccccc1OCCN1CCC(N2CCNC2=O)CC1"
  unit text: "%"
  Percent Effect: 13.4
- molecule: "CN(C)S(=O)(=O)c1ccc(CN2CCCC2c2ccc[nH]2)o1 (stereo not drawn)"
  unit text: "%"
  Percent Effect: -6.17
- molecule: "CCC(=O)N1CCC2(CC1)c1nc[nH]c1CCN2S(C)(=O)=O"
  unit text: "%"
  Percent Effect: 10.3
- molecule: "CCOc1ccnc(N2CCN(C(=O)C(C)(C)C#N)CC2)n1"
  unit text: "%"
  Percent Effect: 6.17
- molecule: "COCCn1ccc(NC(=O)Nc2ccc(C(N)=O)c(F)c2)n1"
  unit text: "%"
  Percent Effect: 0
- molecule: "CN(CC(F)(F)F)C(=O)C1CSCN1C(=O)OC(C)(C)C (stereo not drawn)"
  unit text: "%"
  Percent Effect: 7.5
- molecule: "CNC(=O)Cn1cc(C#N)c(=O)c2cc(Br)ccc21"
  unit text: "%"
  Percent Effect: 13.6
- molecule: "COc1ccc(C(CO)NC(=O)Nc2cccc(C#N)c2)cc1 (stereo not drawn)"
  unit text: "%"
  Percent Effect: 17.1
- molecule: "Cc1ccc(OC2(C(=O)O)CCN(C(=O)c3nc(C)oc3C)CC2)cn1"
  unit text: "%"
  Percent Effect: 4.88
- molecule: "O=C(Nc1cnccn1)[C@@H]1COC[C@H]2CN(C3CCCC3)C[C@H]21"
  unit text: "%"
  Percent Effect: 11
- molecule: "O=C(NCCc1ccc(Cl)s1)NCc1nnc2n1CCC2"
  unit text: "%"
  Percent Effect: 11.1
- molecule: "CC(C)N1CCC(CNCc2c[nH]nc2C(C)(C)C)C1 (stereo not drawn)"
  unit text: "%"
  Percent Effect: 23.5
- molecule: "O=C(C1CC=CC1)N1C[C@@H]2[C@@H](C1)OCC(=O)N2Cc1cccnc1"
  unit text: "%"
  Percent Effect: 6.41
- molecule: "CS(=O)(=O)NCC(=O)N1CCCC1c1noc(C2CC2)n1 (stereo not drawn)"
  unit text: "%"
  Percent Effect: 13.6
- molecule: "Cc1cnn(CC(C)NCc2csc(-c3cnn(C)c3)n2)c1 (stereo not drawn)"
  unit text: "%"
  Percent Effect: -10.1
- molecule: "CCNc1cc2c(nn1)CCN(C(=O)Cc1noc3ccccc13)C2"
  unit text: "%"
  Percent Effect: 16.1
- molecule: "CC(C)CN1CCc2[nH]cnc2C12CCN(C(=O)c1cccnc1)CC2"
  unit text: "%"
  Percent Effect: -6.17
- molecule: "CC(C)c1nc(C(=O)N2CCCC(n3cncn3)C2)c[nH]1 (stereo not drawn)"
  unit text: "%"
  Percent Effect: 15.2
- molecule: "Cc1cnc(CN(C)C2CCN(CCn3cc(C#N)cn3)C2)o1 (stereo not drawn)"
  unit text: "%"
  Percent Effect: 11.1
- molecule: "COc1ccc(CN2C[C@@H]3OCCN(CC4CCCO4)[C@@H]3C2)cc1 (stereo partly drawn)"
  unit text: "%"
  Percent Effect: 12.8
- molecule: "CC(C)COCC(NC(=O)c1ccccn1)c1ccco1 (stereo not drawn)"
  unit text: "%"
  Percent Effect: 16.1
- molecule: "Cc1ccc(C(NC(=O)[C@H]2CC[C@@H](O)CC2)c2cccnc2)cc1C (stereo partly drawn)"
  unit text: "%"
  Percent Effect: 8.64
- molecule: "O=C1CCCCN1Cc1cccc(NC(=O)N2CCSCC2)c1"
  unit text: "%"
  Percent Effect: 12.8
- molecule: "CSC(C)C(=O)N1CCCN(Cc2cnn(C(C)C)c2)CC1 (stereo not drawn)"
  unit text: "%"
  Percent Effect: 11.1
- molecule: "CCn1cc(CN2C[C@@H]3CCCN3C[C@@H]2CCSC)c(C)n1"
  unit text: "%"
  Percent Effect: 6.41
- molecule: "CC[C@@H]1N(Cc2ccsc2)CCC[C@]12CCC(=O)N2C"
  unit text: "%"
  Percent Effect: -12.5
- molecule: "O=C(c1ccc(F)cc1F)N1C[C@@H](O)[C@H](N2CCOCC2)C1"
  unit text: "%"
  Percent Effect: 17.5
- molecule: "COCCN1CC[C@]2(CN(C(=O)c3cccs3)C[C@H]2C)C1=O"
  unit text: "%"
  Percent Effect: 0
- molecule: "COCCC(=O)N1CCn2c(COCC3CC3)cnc2C1C (stereo not drawn)"
  unit text: "%"
  Percent Effect: 5.13
- molecule: "COc1c(CNCc2cccc(CN(C)C)c2)c(C)nn1C"
  unit text: "%"
  Percent Effect: 6.17
- molecule: "c1ccc(-c2ccc(C3CNCCO3)nc2)cc1 (stereo not drawn)"
  unit text: "%"
  Percent Effect: 7.5
- molecule: "CCc1cc(C(=O)N2CCC(Nc3ccc(C)nn3)CC2)sc1C"
  unit text: "%"
  Percent Effect: 7.69
- molecule: "Cc1csc(N2CCN(CCc3ccccn3)CC2C)n1 (stereo not drawn)"
  unit text: "%"
  Percent Effect: 5
- molecule: "Cc1cnc(C(=O)N2CCCCC2c2[nH]ncc2S(C)(=O)=O)cn1 (stereo not drawn)"
  unit text: "%"
  Percent Effect: 12.5
- molecule: "CC(C)(C)NC(=O)C1CSCN1S(=O)(=O)c1ccc(F)cc1 (stereo not drawn)"
  unit text: "%"
  Percent Effect: 20.2
- molecule: "CCC(=O)N1CCc2nc3cc(OC)c(OC)cc3c(=O)n2CC1"
  unit text: "%"
  Percent Effect: 11.7
- molecule: "Cc1nn(C)c(Cl)c1CNCc1ccc(OCC(N)=O)cc1"
  unit text: "%"
  Percent Effect: 12.8
- molecule: "CN(CC1COc2ccccc2O1)C(=O)NCCCn1cncn1 (stereo not drawn)"
  unit text: "%"
  Percent Effect: 24.4
- molecule: "C=Cn1ncc(CN2C[C@@H]3CCCN3C[C@H]2CCSC)c1C"
  unit text: "%"
  Percent Effect: 1.3
- molecule: "Cc1cnn(CCC(=O)N2CCN(c3ncccc3Cl)CC2)c1"
  unit text: "%"
  Percent Effect: 2.53
- molecule: "Cn1nc(C#N)c2c1CN(C(=O)c1cccnc1)CCC2"
  unit text: "%"
  Percent Effect: -6.41

From: ChEMBL document CHEMBL3988442
